Assayed system: DNA-directed RNA polymerase subunit beta [H526D] (Escherichia coli, H526D)
Assay details: RNAP-Inhibition Assay
Applied conditions: 37 °C

Structure	Inequality operator	IC50 / µM
CO[C@H]1/C=C/O[C@@]2(C)Oc3c(C)c(O)c4c(O)c(cc(O)c4c3C2=O)NC(=O)/C(C)=C\C=C\[C@H](C)[C@H](O)[C@@H](C)[C@@H](O)[C@@H](C)[C@H](OC(C)=O)[C@@H]1C	>	100
CC(C)Cc1nnc2c(C(=O)NC3c4ccccc4-c4ccccc43)cccn12	=	3

###

Listing of entries alongside the reported IC50.
Assayed system: DNA-directed RNA polymerase subunit beta [S531L] (Escherichia coli, S531L)
Assay details: RNAP-Inhibition Assay
Applied conditions: 37 °C
Measure: IC50 (µM)

Structure	Units	Reported result
CC(C)Cc1nnc2c(C(=O)NC3c4ccccc4-c4ccccc43)cccn12	µM	4
CO[C@H]1/C=C/O[C@@]2(C)Oc3c(C)c(O)c4c(O)c(cc(O)c4c3C2=O)NC(=O)/C(C)=C\C=C\[C@H](C)[C@H](O)[C@@H](C)[C@@H](O)[C@@H](C)[C@H](OC(C)=O)[C@@H]1C	µM	80

###

Assayed system: DNA-directed RNA polymerase subunit beta [D516V] (Escherichia coli, D516V)
Assay details: RNAP-Inhibition Assay
Applied conditions: 37 °C

Structure	Units	IC50
CO[C@H]1/C=C/O[C@@]2(C)Oc3c(C)c(O)c4c(O)c(cc(O)c4c3C2=O)NC(=O)/C(C)=C\C=C\[C@H](C)[C@H](O)[C@@H](C)[C@@H](O)[C@@H](C)[C@H](OC(C)=O)[C@@H]1C	µM	70
CC(C)Cc1nnc2c(C(=O)NC3c4ccccc4-c4ccccc43)cccn12	µM	4
